Listing of entries alongside the reported melting point.

{"compound": "CCCCOCCOc1ccc(-c2ccc3c(c2)C=C(C(=O)Nc2ccc([C@@H](O)c4ccccn4)cc2)CCN3C=O)cc1", "melting point": "110 to 112 °C"}
{"compound": "CCCCOCCOc1ccc(-c2ccc3c(c2)C=C(C(=O)Nc2ccc([S+]([O-])Cc4ncnn4C)cc2)CCN3CC(C)C)cc1 (stereo not drawn)", "melting point": "135 to 138 °C"}
{"compound": "CCCCOCCOc1ccc(-c2ccc3c(c2)C=C(C(=O)Nc2ccc(C(O)c4cccc(C)[n+]4[O-])cc2)CCN3C(=O)C(F)(F)F)cc1 (stereo not drawn)", "melting point": "170 to 173 °C"}
